B1: PPFIA4 (parent)
chain: YAGNLHESGVHGALLALDENFDHN

Variants of: B1
method_notes: protein stability index of a GFP-peptide fusion (GPS, HEK-293T) (PSI 1-6); higher = more stable;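 also: lentivirally expressed fusions sorted by FACS into six bins by GFP to DsRed ratio, PSI derived from sequencing read proportions per bin multiplied by bin number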
experimental_parameters: c terminus: a fixed tail appended
Kindly state protein stability index for each of the entries shown.
Answers are plain numbers.

Check out these entries, answers already filled in.
L5N    2.96
L17T    3.04
A2K    4.68
N4P    2.77
D18Q    2.65

Take each entry in turn and give its protein stability index.
1. N24Q
2. N20T
3. D18C
4. L15Q
5. Y1S
6. L17I
7. N24L

Result string:
[2.69, 2.16, 1.34, 3.52, 5.03, 2.02, 2.28]

Take each entry in turn and give its protein stability index.
1. E19R
2. G9E

Result string:
1: 2.06; 2: 3.49

Take each entry in turn and give its protein stability index.
1. G9F
2. H23W
3. N4I
4. N4V
5. N20R
6. Y1N
7. N20D

Result string:
1: 1.83; 2: 2.07; 3: 2.53; 4: 2.18; 5: 2.25; 6: 4.81; 7: 2.98

Take each entry in turn and give its protein stability index.
1. Y1C
2. A2M
3. A13F
4. A2N
5. G12N
6. E19L

Result string:
3.94
3.23
1.73
4.32
3.68
1.24

Take each entry in turn and give its protein stability index.
1. H23G
2. A2S
3. A13P

Result string:
1: 2.46; 2: 3.31; 3: 2.96

Take each entry in turn and give its protein stability index.
1. D22H
2. D18Y
3. H6R

Result string:
1.84
2.14
1.92

Take each entry in turn and give its protein stability index.
1. L17R
2. V10Y
3. A13C
4. V10E
5. H11F
6. L15P
7. G3C

Result string:
1: 3.31; 2: 2.31; 3: 2.21; 4: 4.11; 5: 2.49; 6: 4.09; 7: 2.64

Take each entry in turn and give its protein stability index.
1. L14M
2. V10D
3. V10S
4. L14P

Result string:
1: 3.07; 2: 4.04; 3: 3.09; 4: 4.03
